assay type: in vivo, human; conditions: female, human, plasma, oral
MEASUREMENT LABEL: clearance (mL/min)
// return numeric value only (unit: mL/min, not printed)

The recorded clearance for C[C@H]1O[C@@H](O[C@H]2[C@@H](O)C[C@H](O[C@H]3[C@@H](O)C[C@H](O[C@H]4CC[C@@]5(C)[C@H](CC[C@@H]6[C@@H]5C[C@@H](O)[C@]5(C)[C@@H](C7=CC(=O)OC7)CC[C@]65O)C4)O[C@@H]3C)O[C@@H]2C)C[C@H](O)[C@@H]1O is 262

* * *

target: P-gp (Homo sapiens, UniProt P08183)
Sequence (P08183 whole entry): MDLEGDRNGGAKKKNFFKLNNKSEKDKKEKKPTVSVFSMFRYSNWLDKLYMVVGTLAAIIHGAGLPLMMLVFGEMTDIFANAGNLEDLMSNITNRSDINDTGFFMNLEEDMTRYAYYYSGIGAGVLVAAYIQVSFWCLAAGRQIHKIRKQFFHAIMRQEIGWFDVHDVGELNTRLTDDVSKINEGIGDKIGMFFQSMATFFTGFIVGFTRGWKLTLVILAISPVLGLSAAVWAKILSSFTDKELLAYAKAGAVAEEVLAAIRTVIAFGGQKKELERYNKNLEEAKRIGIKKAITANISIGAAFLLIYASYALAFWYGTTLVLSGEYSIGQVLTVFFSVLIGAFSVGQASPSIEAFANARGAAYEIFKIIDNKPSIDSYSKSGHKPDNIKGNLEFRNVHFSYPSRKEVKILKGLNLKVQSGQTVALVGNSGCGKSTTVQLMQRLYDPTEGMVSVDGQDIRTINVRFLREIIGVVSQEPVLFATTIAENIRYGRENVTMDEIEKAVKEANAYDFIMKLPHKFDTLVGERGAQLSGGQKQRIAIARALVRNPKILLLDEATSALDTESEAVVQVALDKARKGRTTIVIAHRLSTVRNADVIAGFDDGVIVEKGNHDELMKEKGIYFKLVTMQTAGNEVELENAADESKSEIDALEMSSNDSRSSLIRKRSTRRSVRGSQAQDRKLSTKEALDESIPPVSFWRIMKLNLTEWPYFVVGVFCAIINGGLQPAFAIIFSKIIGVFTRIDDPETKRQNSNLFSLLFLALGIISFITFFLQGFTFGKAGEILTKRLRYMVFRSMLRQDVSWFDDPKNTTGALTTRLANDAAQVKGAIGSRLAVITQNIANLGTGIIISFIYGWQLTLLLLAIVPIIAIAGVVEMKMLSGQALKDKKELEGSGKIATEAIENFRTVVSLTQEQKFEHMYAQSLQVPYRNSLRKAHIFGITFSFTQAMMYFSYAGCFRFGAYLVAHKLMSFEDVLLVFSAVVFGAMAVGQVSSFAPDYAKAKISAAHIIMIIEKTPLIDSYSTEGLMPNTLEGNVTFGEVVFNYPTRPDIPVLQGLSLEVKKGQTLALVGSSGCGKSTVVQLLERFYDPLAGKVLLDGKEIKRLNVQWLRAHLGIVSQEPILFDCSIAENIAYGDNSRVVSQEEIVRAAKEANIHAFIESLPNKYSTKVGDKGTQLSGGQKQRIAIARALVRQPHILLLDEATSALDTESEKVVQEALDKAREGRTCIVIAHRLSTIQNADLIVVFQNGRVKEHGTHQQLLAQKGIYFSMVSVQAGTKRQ
MEASUREMENT LABEL: IC50 (nM)
# unit: nM | format: bare number

The compound listed as CC1(C)CCC(CN2CCN(c3ccc(C(=O)NS(=O)(=O)c4ccc(NCC5CCOCC5)c([N+](=O)[O-])c4)c(Oc4cnc5[nH]ccc5c4)c3)CC2)=C(c2ccc(Cl)cc2)C1 has a reported IC50 of 377
